Recorded protein stability index values for a group of variants are listed next.
B1: FEM1A (parent)
chain: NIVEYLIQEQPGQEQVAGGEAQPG

variants of: B1; experiment: protein stability index of a GFP-peptide fusion (GPS, HEK-293T) (PSI 1-6); higher = more stable; conditions: c terminus: a fixed tail appended;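 further: lentivirally expressed fusions sorted by FACS into six bins by GFP to DsRed ratio, PSI derived from sequencing read proportions per bin multiplied by bin number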
measure name: protein stability index

INSERT INTO measurements (mutant, value) VALUES
  ('Q22I', 3.66),
  ('Q22L', 4.16),
  ('Q22Y', 2.78),
  ('A17R', 3.5),
  ('E4T', 4.6),
  ('A17L', 3.33),
  ('I2E', 5.63),
  ('P11F', 2.75),
  ('N1V', 2.76),
  ('E9Q', 3.52),
  ('Q10S', 4.53),
  ('Y5C', 4.74),
  ('E14S', 3.21),
  ('G18C', 3.8),
  ('V16K', 4.29),
  ('G24R', 3.98),
  ('V16N', 3.87),
  ('E4Q', 3.95),
  ('G19Y', 3.47),
  ('E9K', 3.71),
  ('Q22H', 3.94),
  ('E9F', 2.79);
